Below, each entry is listed with its recorded melting point.
PROPERTY: melting point

{"columns": ["STRUCTURE_SMILES", "RESULT"],
 "data": [
  ["O=C(NCc1ccc(-c2noc(C(F)(F)F)n2)c(F)c1)N1CCOCC1", "82 to 94 °C"],
  ["O=C(NCc1ccc(-c2noc(C(F)(F)F)n2)cc1)NC1CC1", "176 to 180.1 °C"],
  ["O=C(NCc1ccc(-c2noc(C(F)(F)F)n2)c(F)c1)NC1CC1", "169 to 173 °C"],
  ["O=C(NCc1ccc(-c2noc(C(F)(F)F)n2)cc1)n1ccnc1", "97 to 102 °C"],
  ["O=C(NCc1ccc(-c2noc(C(F)(F)F)n2)cc1)OCC1CC1", "108.2 to 109.8 °C"],
  ["O=C(NCc1ccc(-c2noc(C(F)(F)F)n2)cc1)OC1CCOCC1", "104 to 106 °C"]
]}
